# assayedTarget: Paired box protein Pax-6 (Homo sapiens) (UniProt P26367)
# Sequence (P26367 whole entry, looked up): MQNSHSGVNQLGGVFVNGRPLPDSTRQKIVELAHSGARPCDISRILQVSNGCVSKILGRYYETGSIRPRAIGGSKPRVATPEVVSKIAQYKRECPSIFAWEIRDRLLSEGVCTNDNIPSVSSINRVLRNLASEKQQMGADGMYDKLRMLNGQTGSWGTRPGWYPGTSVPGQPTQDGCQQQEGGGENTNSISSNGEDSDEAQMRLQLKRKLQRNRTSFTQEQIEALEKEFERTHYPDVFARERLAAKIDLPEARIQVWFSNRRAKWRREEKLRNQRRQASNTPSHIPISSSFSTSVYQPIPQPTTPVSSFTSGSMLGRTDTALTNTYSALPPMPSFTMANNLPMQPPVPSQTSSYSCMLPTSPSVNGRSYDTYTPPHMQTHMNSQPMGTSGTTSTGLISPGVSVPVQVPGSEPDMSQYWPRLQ
# assayMethodText: ATG_Pax6_CIS: Attagene CIS-FACTORIAL HepG2 Assay for human Paired Box 6 (PAX6) (AID 2282956)
# statedConditions: HepG2 CIS-FACTORIAL PAX6 reporter transcription, RNA readout; actives raise or lower the signal
The source made the active and inactive calls. Rule for the calls: active = hit-call score of the fitted dose curve at least 0.9, where 1 is the maximum; inactive = score below 0.9.
The reply should name one outcome from active, inactive

In: Hello, I am checking results. What call was entered for [O-]n1ccccc1=S.[O-]n1ccccc1=S.[Zn+2] ?
Out: inactive

In: Hello, I am checking results. What call was entered for C[C@H]1C[C@@H](O)CC(C)(C)C1 ?
Out: inactive

In: Hello, I am checking results. What call was entered for O=C1CCCC=CCCCCCCCCCC1 ?
Out: inactive

In: Hello, I am checking results. What call was entered for CCCCCCC(=O)c1ccccc1 ?
Out: inactive

In: Hello, I am checking results. What call was entered for CCCCCC(=O)CC ?
Out: inactive

In: Hello, I am checking results. What call was entered for COC(=O)c1ccc(OC)cc1 ?
Out: inactive

In: Hello, I am checking results. What call was entered for CCC1(C)NC(=O)NC1=O (centres undefined) ?
Out: inactive

In: Hello, I am checking results. What call was entered for CN(C)CCOc1ccc(/C(=C(/CCCl)c2ccccc2)c2ccccc2)cc1 ?
Out: inactive

In: Hello, I am checking results. What call was entered for O=c1c(O)c(-c2ccc(O)cc2)oc2cc(O)cc(O)c12 ?
Out: inactive

In: Hello, I am checking results. What call was entered for CC=Cc1ccc(OC)c(OC)c1 ?
Out: inactive

In: Hello, I am checking results. What call was entered for C=C1CC[C@H](O)C/C1=C/C=C1\CCC[C@]2(C)[C@@H]([C@H](C)/C=C/[C@H](C)C(C)C)CC[C@@H]12 ?
Out: inactive

In: Hello, I am checking results. What call was entered for c1ccc(Oc2ccccc2)cc1 ?
Out: inactive

In: Hello, I am checking results. What call was entered for O=C(O)CCCCCCCCCCCC(=O)O ?
Out: inactive

In: Hello, I am checking results. What call was entered for NC(=S)NNC(N)=S ?
Out: inactive

In: Hello, I am checking results. What call was entered for OC[C@H]1O[C@@H](Oc2ccc(O)cc2)[C@H](O)[C@@H](O)[C@@H]1O ?
Out: inactive

In: Hello, I am checking results. What call was entered for O=C(O)c1cc(C(=O)O)cc([N+](=O)[O-])c1 ?
Out: inactive

In: Hello, I am checking results. What call was entered for CCN(CCC#N)c1ccc(N=Nc2ccc([N+](=O)[O-])cc2)cc1 ?
Out: inactive

In: Hello, I am checking results. What call was entered for O=C(O)CNc1ccccc1 ?
Out: inactive

In: Hello, I am checking results. What call was entered for Cc1cccc(Nc2ccccc2)c1 ?
Out: active

In: Hello, I am checking results. What call was entered for COc1ccc(CCC(C)=O)cc1 ?
Out: inactive

In: Hello, I am checking results. What call was entered for CCC1(c2ccccc2)C(=O)NCNC1=O ?
Out: inactive

In: Hello, I am checking results. What call was entered for CCCC(=O)OC(C)(C)Cc1ccccc1 ?
Out: inactive

In: Hello, I am checking results. What call was entered for CSc1c(Cl)c(Cl)c(Cl)c(Cl)c1Cl ?
Out: active

In: Hello, I am checking results. What call was entered for O=C1OC(=O)c2c(Cl)c(Cl)c(Cl)c(Cl)c21 ?
Out: inactive

In: Hello, I am checking results. What call was entered for COC(=O)Nc1ccc(Cl)c(Cl)c1 ?
Out: inactive

In: Hello, I am checking results. What call was entered for BrCc1cccc(Oc2ccccc2)c1 ?
Out: inactive

In: Hello, I am checking results. What call was entered for O=C1c2ccccc2C(=O)c2c(O)ccc(O)c21 ?
Out: inactive

In: Hello, I am checking results. What call was entered for C=CC(C)(O)CCC=C(C)C (centres undefined) ?
Out: inactive

In: Hello, I am checking results. What call was entered for CCN(CC)C(=O)N(CC)CC ?
Out: inactive
